Provenance of the data: PubChem BioAssay AID441

Biological target: N-formyl peptide receptor 2 (Homo sapiens) (UniProt P25090)
Sequence (P25090 whole entry, looked up): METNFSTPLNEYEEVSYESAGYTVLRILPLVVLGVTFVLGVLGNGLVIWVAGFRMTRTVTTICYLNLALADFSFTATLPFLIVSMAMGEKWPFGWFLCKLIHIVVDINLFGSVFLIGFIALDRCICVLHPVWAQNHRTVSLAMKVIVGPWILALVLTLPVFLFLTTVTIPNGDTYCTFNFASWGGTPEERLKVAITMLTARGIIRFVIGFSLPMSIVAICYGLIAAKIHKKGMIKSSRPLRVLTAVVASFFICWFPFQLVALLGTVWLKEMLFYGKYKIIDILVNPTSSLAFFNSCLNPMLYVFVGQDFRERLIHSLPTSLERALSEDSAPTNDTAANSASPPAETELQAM
Assay: human FPRL1 ligands by binding competition, primary screen, cell-based, FPR counter-screen, flow cytometry (AID 441);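 further: 0% = buffer alone and 100% = receptor blocker peptide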
Details: FPRL1-expressing cells, fluorescent ligand binding inhibition, active compounds read high, concentration not given here
The whole screen tested about 24,000 compounds, of which about 70 (0.3%) were called active. The list comes from a sample in which actives are over-represented; it also holds close analogues and randomly drawn compounds.
EXPERIMENTAL READOUT: inhibition

Which inhibition value belongs to COc1ccc(CCNC(=O)CSc2nnc(CNC(=O)c3cccs3)o2)cc1OC ?
1.2% (inactive)

inhibition lookup needed for CCOc1ccccc1NC(=O)c1cc(S(=O)(=O)N2CCC3(CC2)OCCO3)ccc1F , thanks.
-14.8% (inactive)

Request the reported inhibition associated with CC(=O)c1c(C)c[nH]c1C
6% (inactive)

Can you share its inhibition? I mean this compound: Cc1nnc(SCC(=O)N(C(C)C)C(C)C)nc1C
-5.7% (inactive)

I am curious: what inhibition value has been reported for CCOC(=O)C1CCN(C(=O)C2CCN(S(=O)(=O)c3c(C)noc3C)CC2)CC1 ?
10.6% (inactive)

Return reported inhibition; argument: O=C(CC1Oc2ccccc2NC1=O)NCCCN1CCN(Cc2ccccc2)CC1 (stereo unspecified)
-1.8% (inactive)

# lookup: inhibition of Cn1c(CNC(=O)C(C)(C)C)nc2ccccc21
-0.3% (inactive)

Recorded inhibition for CCOc1ccccc1NC(=O)C1CCN(S(=O)(=O)c2c(C)nn(C)c2C)CC1 , please?
-6.7% (inactive)

Given c1ccc(CCn2nnnc2CN2CCN(C3CCCC3)CC2)cc1 , state its recorded inhibition.
-2.3% (inactive)

Please give the measured inhibition for this compound: O=C(Nc1cccc(OCC(=O)N2CCOCC2)c1)C1CCCCC1
-0.9% (inactive)

Given CCCSc1nc2c(c(=O)[nH]c(=O)n2C)n1CCc1ccccc1 , state its recorded inhibition.
0.6% (inactive)

----------
Exercise: state measured inhibition for each of the compounds provided.
Target: N-formyl peptide receptor 2 (Homo sapiens) (UniProt P25090)
Test: human FPRL1 ligands by binding competition, primary screen, cell-based, FPR counter-screen, flow cytometry (AID 441);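 further: 0% = buffer alone and 100% = receptor blocker peptide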
Details: FPRL1-expressing cells, fluorescent ligand binding inhibition, active compounds read high, concentration not given here
The campaign covered roughly 24,000 compounds. About 70 (0.3%) were called active. Only a selection was taken, and actives are over-represented in it overall.
# output: bare number, implied unit %

Look at this compound and give its reported inhibition. O=C1CC(c2ccccc2)CC(O)=C1C=NCCN1CCOCC1 (stereo not given)
1.2

Returns the measured inhibition for the input compound. Input: Cc1ccc(S(=O)(=O)n2nc(OC(=O)C(C)(C)C)cc2N)cc1
-2.2

Reported inhibition for O=C1CCc2cc(S(=O)(=O)N3CCC(C(=O)NCc4ccccc4Cl)CC3)ccc2N1 : what is it?
-0.3

// query inhibition value for entry COc1ccc(/C(O)=C2/C(=O)C(=O)N(CC3CCCO3)C2c2ccc(OC)c(OC)c2)cc1 (stereo not given)
-7.5

Data request, read-out inhibition, for O=C1C(=O)N(CCN2CCOCC2)C(c2ccccn2)/C1=C(/O)c1ccc(Cl)cc1 (stereo not given)
-6.2

Form field: reported inhibition of O=C(NCCCN1CCN(Cc2ccccc2)CC1)C1CCN(S(=O)(=O)N2CCCC2)CC1
2

What value of measured inhibition is listed for CC1Cc2cc(/C(O)=C3\C(=O)C(=O)N(CCN4CCOCC4)C3c3ccccc3F)ccc2O1 (stereo not given) ?
30.8

Which inhibition value is on record for COc1ccc(C(=O)Nc2nncs2)c(OC)c1 ?
0

Data request, read-out inhibition, for CCCCOc1ccc(C(=O)NCc2ccco2)cc1
-9.3

// lookup inhibition for O=C(CN1CCN(c2ccccc2F)CC1)c1ccc2c(c1)OCO2
-9.1
